# Tested on: SK-MEL-28
# measurement-description: NCI tumour cell line growth inhibition, 48 h
Activity calls are given as the source filed them. Cut-off read from the data, not from the text of the source: active = GI50 up to about 1.1 µM and inactive = higher.
# maps each entry to its GI50

compound	data-value
CCSc1n/c(=C\c2ccc(N(C)C)cc2)c2nnnn12	> 100 µM (inactive)

Inquiry: Please list GI50 recorded for the compound `NCCCCN(CCCN)/[N+]([O-])=N\O`
Reply text: > 100 µM (inactive)

###

# maps each entry to its GI50
# Test system: SK-OV-3
# measurement-description: NCI tumour cell line growth inhibition, 48 h
Calls of active or inactive are those of the source. Rule as the data show it: active = GI50 up to about 1.1 µM and inactive = higher.

For orientation, consider the following solved cases.
molecule	data-value
N#C/C(=C1\N=C(c2ccccc2O)Oc2ccccc21)c1ccc([N+](=O)[O-])cc1	> 100 µM (inactive)
C[C@]12O[C@@]3(C)O[C@@]3(C)[C@]3(C)O[C@]3(C)[C@@]1(C)O2	> 100 µM (inactive)
N#C[C@H](C(=O)c1ccccc1F)c1nc2ccccc2s1	21.1 µM (inactive)
O=C(O)Cn1c(=O)[nH]c(=O)c2[nH]cnc21	> 100 µM (inactive)
Cc1cccc(C)c1NC(=O)/C(CC(=O)CC(c1ccccc1)c1c(O)c2ccccc2oc1=O)=N/O (centres undefined)	> 100 µM (inactive)
O=[N+]([O-])c1ccc(Cl)cc1C1SCc2nc3ccccc3n21 (centres undefined)	62.8 µM (inactive)

Inquiry: Please list GI50 recorded for the molecule CC1(C)CC[C@]2(C(=O)O)CC[C@]3(C)C(=CC[C@@H]4[C@@]5(C)CC[C@H](OC6OC(CO)C(O)C(O)C6O)C(C)(C)[C@@H]5CC[C@]43C)[C@@H]2C1 (some centres undefined)
Reply text: 1.75 µM (inactive)

Inquiry: Please list GI50 recorded for the molecule CC(=O)c1c2c(cc3c1CC1(C3)Cc3ccc4c(c3C1=O)CCC4)CCC2 (centres undefined)
Reply text: > 100 µM (inactive)

Inquiry: Please list GI50 recorded for the molecule CC(C)/C=C1\CCC(CN(C)C)C1=O (centres undefined)
Reply text: 18.3 µM (inactive)

###

# Tested on: IGROV-1
# measurement-description: NCI tumour cell line growth inhibition, 48 h
Calls of active or inactive are those of the source. Rule as the data show it: active = GI50 up to about 1.1 µM and inactive = higher.
# maps each entry to its GI50

For orientation, consider the following solved cases.
compound	tested-on	GI50
C=C1CC[C@@H]2C13[C@@H]1[C@H](CC(=O)[C@@]23C)C1(C)C (stereo partly drawn)	IGROV-1	55.7 µM (inactive)
COc1cc([C@@H]2c3cc4c(cc3[C@@H](NCCCN(C)C)[C@H]3COC(=O)[C@H]23)OCO4)cc(OC)c1O	IGROV-1	0.337 µM (active)
CCOC(=O)C1=C(C)N(Cc2ccc(Cl)cc2Cl)C2(O)C(OC)CC(=O)C3C(=O)N(c4ccccc4)C(=O)C132 (stereo not drawn)	IGROV-1	4.34 µM (inactive)
Fc1cccc2cc3ccc4cccc5ccc(c12)c3c45	IGROV-1	> 100 µM (inactive)
CC(C)(C)C1=CC(=C2C=Cc3ccccc3O2)C=C(C(C)(C)C)C1=O	IGROV-1	6.53 µM (inactive)

Moving on to the next compound.
Inquiry: Please list GI50 recorded for the compound CSc1nc(NC2OCC(OC(C)=O)C(OC(C)=O)C2OC(C)=O)c(/N=C(\C)C(C)=O)c(=O)[nH]1 (stereo not drawn)
Reply text: > 100 µM (inactive)
